target: human sodium-dependent glucose transporter 1 (SGLT1, SLC5A1) (Homo sapiens)
Construct: Bases 11 to 2005 correspond to the complete coding region of human SGLT1
Sequence (P13866 whole entry): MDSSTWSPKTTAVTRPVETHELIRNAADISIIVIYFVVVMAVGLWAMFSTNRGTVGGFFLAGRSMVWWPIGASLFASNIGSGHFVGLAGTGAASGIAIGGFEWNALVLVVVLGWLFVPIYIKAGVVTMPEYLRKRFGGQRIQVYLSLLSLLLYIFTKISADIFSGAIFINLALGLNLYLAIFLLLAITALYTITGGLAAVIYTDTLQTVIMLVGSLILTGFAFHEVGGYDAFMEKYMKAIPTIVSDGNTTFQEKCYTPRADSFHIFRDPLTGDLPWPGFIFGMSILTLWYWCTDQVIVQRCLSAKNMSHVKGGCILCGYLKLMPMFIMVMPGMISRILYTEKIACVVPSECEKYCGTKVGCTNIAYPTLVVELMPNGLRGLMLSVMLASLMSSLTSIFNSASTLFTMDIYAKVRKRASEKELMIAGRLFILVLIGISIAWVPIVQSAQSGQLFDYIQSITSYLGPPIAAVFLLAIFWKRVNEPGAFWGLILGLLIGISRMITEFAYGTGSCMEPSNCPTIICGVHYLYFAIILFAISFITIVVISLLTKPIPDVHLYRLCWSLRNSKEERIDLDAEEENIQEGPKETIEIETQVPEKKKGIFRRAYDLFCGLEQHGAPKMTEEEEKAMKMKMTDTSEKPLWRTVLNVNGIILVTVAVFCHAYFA
run description: Inhibition of methyl α-D-glucopyranoside uptake in CHO-TRex-hSGLT1 cells
assay context: recombinant SGLT1; read-out: IC50 SGLT 1
observed property: IC50 (µM)

> print(dat)
                                   compound  value.measured
1  CCc1ccc(Cc2ccccc2OC2OC(CO)C(F)C(O)C2O)cc1 (stereo not shown) [Example 20 of formula III]            0.32
2  COc1ccc(Cc2c(OC3OC(CO)C(F)C(O)C3O)n[nH]c2C(F)(F)F)cc1 (stereo not shown) [Example 5 of formula II]           0.029
3  CC(C)c1[nH]nc(OC2OC(CO)C(F)C(O)C2O)c1Cc1ccc(CCCC(=O)NC(CO)(CO)CO)cc1 (stereo not shown) [Example 21 of formula I]           0.027
4  COc1ccc(Cc2ccccc2OC2OC(CO)C(F)C(O)C2O)cc1 (stereo not shown) [Example 1 of formula III]            0.77

Just for reference, patent US20120270819A1 is where these values come from.
